# method-notes: Clinical study of single oral doses of 5-azacytidine (oral formulation of Example 3): PK, bioavailability, safety
# Type: in vivo, human
# condition-parameters: human, plasma, po, 80 mg, Subject 102; 80 mg single oral dose (Example 3 tablets); 1.5 h; read-out: Plasma concentration
quantity: concentration at 1.5 h

Please look up its concentration at 1.5 h: Nc1ncn([C@@H]2O[C@H](CO)[C@@H](O)[C@H]2O)c(=O)n1
34.3 ng/mL

====

# method-notes: Caco 2 monolayer permeability of 5-azacytidine with and without excipients
# Type: in vitro ADME
# condition-parameters: human, Caco-2, pH 7.4, with Labrafil 0.1%
quantity: Papp at 1000 micromolar (×10⁻⁶ cm/s)
Answers are plain numbers, in ×10⁻⁶ cm/s.

Item under review: Nc1ncn([C@@H]2O[C@H](CO)[C@@H](O)[C@H]2O)c(=O)n1 . Reported Papp at 1000 micromolar?
0.34

====

# method-notes: Clinical study of single oral doses of 5-azacytidine (oral formulation of Example 3): PK, bioavailability, safety
# Assay type: in vivo, human
# condition-parameters: human, plasma, po, 80 mg, Subject 102; 80 mg single oral dose (Example 3 tablets); 2.5 h; read-out: Plasma concentration
# Procedure: The study was a multicenter, open-label, single treatment study. Patients were treated with escalating doses, in 20 mg increments, up to 200 mg. The study assessed the safety and tolerability of escalating doses, provided pilot information on the oral bioavailability of the study drug, and provided information on the single dose pharmacokinetics of the study drug after oral administration. Multicenter, open-label, single-treatment, escalating-dose PK study. […]
quantity: concentration at 2.5 h (ng/mL)
Answers are plain numbers, in ng/mL.

What value of concentration at 2.5 h has been recorded for this entry: Nc1ncn([C@@H]2O[C@H](CO)[C@@H](O)[C@H]2O)c(=O)n1
3.61

====

# method-notes: Clinical study of single oral doses of 5-azacytidine (oral formulation of Example 3): PK, bioavailability, safety
# Assay type: in vivo, human
# condition-parameters: human, plasma, po, 80 mg, Subject 201; 80 mg single oral dose (Example 3 tablets); 1.5 h; read-out: Plasma concentration
quantity: concentration at 1.5 h
State the value with its unit after it.

Can you look up the measured concentration at 1.5 h of Nc1ncn([C@@H]2O[C@H](CO)[C@@H](O)[C@H]2O)c(=O)n1 for me?
0.0585 µg/mL

====

# method-notes: Clinical study of single oral doses of 5-azacytidine (oral formulation of Example 3): PK, bioavailability, safety
# Assay type: in vivo, human
# condition-parameters: human, plasma, po, 60 mg, Subject 101; 60 mg single oral dose (Example 3 tablets); 3.5 h; read-out: Plasma concentration
# Protocol: The study was a multicenter, open-label, single treatment study. Patients were treated with escalating doses, in 20 mg increments, up to 200 mg. The study assessed the safety and tolerability of escalating doses, provided pilot information on the oral bioavailability of the study drug, and provided information on the single dose pharmacokinetics of the study drug after oral administration. Multicenter, open-label, single-treatment, escalating-dose PK study. […]
quantity: concentration at 3.5 h (ng/mL)
Give bare numbers, in ng/mL.

I'd like to know its concentration at 3.5 h. The molecule in question is Nc1ncn([C@@H]2O[C@H](CO)[C@@H](O)[C@H]2O)c(=O)n1 [5-azacytidine]
4.27
